Entries annotated with measured MFI ratio to WT (ΔWT)
- targetUnderTest: T1, human CD28, full-length, expressed on transfected Expi293 cells (human, UniProt P10747 19-220)
- T1 construct: whole, on cells
- assayProtocol: flow cytometry, 100 nM, Expi293 cells with human CD28

[
  {
    "binder": "variant ICOSL IgV-Fc fusion N52T/N57H/Q100S (Fc fusion) DTQEKEVRAMVGSDVELSCACPEGSRFDLNDVYVYWQTSESKTVVTYHIPQTSSLEHVDSRYRNRALMSPAGMLRGDFSLRLFNVTPQDEQKFHCLVLSSSLGFQEVLSVEVTLHVAANFSVGSGGGGSEPKSSDKTHTCPPCPAPEAEGAPSVFLFPPKPKDTLMISRTPEVTCVVVDVSHEDPEVKFNWYVDGVEVHNAKTKPREEQYNSTYRVVSVLTVLHQDWLNGKEYKCKVSNKALPAPIEKTISKAKGQPREPQVYTLPPSREEMTKNQVSLTCLVKGFYPSDIAVEWESNGQPENNYKTTPPVLDSDGSFFLYSKLTVDKSRWQQGNVFSCSVMHEALHNHYTQKSLSLSPG",
    "MFI ratio to WT (ΔWT) (fold)": 6.4
  },
  {
    "binder": "wild-type ICOSL IgV-Fc fusion (Fc fusion, also called WT ICOSL) DTQEKEVRAMVGSDVELSCACPEGSRFDLNDVYVYWQTSESKTVVTYHIPQNSSLENVDSRYRNRALMSPAGMLRGDFSLRLFNVTPQDEQKFHCLVLSQSLGFQEVLSVEVTLHVAANFSVGSGGGGSEPKSSDKTHTCPPCPAPEAEGAPSVFLFPPKPKDTLMISRTPEVTCVVVDVSHEDPEVKFNWYVDGVEVHNAKTKPREEQYNSTYRVVSVLTVLHQDWLNGKEYKCKVSNKALPAPIEKTISKAKGQPREPQVYTLPPSREEMTKNQVSLTCLVKGFYPSDIAVEWESNGQPENNYKTTPPVLDSDGSFFLYSKLTVDKSRWQQGNVFSCSVMHEALHNHYTQKSLSLSPG",
    "MFI ratio to WT (ΔWT) (fold)": 1
  },
  {
    "binder": "variant ICOSL IgV-Fc fusion N52V/N57T/Q100L (Fc fusion) DTQEKEVRAMVGSDVELSCACPEGSRFDLNDVYVYWQTSESKTVVTYHIPQVSSLETVDSRYRNRALMSPAGMLRGDFSLRLFNVTPQDEQKFHCLVLSLSLGFQEVLSVEVTLHVAANFSVGSGGGGSEPKSSDKTHTCPPCPAPEAEGAPSVFLFPPKPKDTLMISRTPEVTCVVVDVSHEDPEVKFNWYVDGVEVHNAKTKPREEQYNSTYRVVSVLTVLHQDWLNGKEYKCKVSNKALPAPIEKTISKAKGQPREPQVYTLPPSREEMTKNQVSLTCLVKGFYPSDIAVEWESNGQPENNYKTTPPVLDSDGSFFLYSKLTVDKSRWQQGNVFSCSVMHEALHNHYTQKSLSLSPG",
    "MFI ratio to WT (ΔWT) (fold)": 0.3
  },
  {
    "binder": "variant ICOSL IgV-Fc fusion N52S/N57H/Q100E (Fc fusion) DTQEKEVRAMVGSDVELSCACPEGSRFDLNDVYVYWQTSESKTVVTYHIPQSSSLEHVDSRYRNRALMSPAGMLRGDFSLRLFNVTPQDEQKFHCLVLSESLGFQEVLSVEVTLHVAANFSVGSGGGGSEPKSSDKTHTCPPCPAPEAEGAPSVFLFPPKPKDTLMISRTPEVTCVVVDVSHEDPEVKFNWYVDGVEVHNAKTKPREEQYNSTYRVVSVLTVLHQDWLNGKEYKCKVSNKALPAPIEKTISKAKGQPREPQVYTLPPSREEMTKNQVSLTCLVKGFYPSDIAVEWESNGQPENNYKTTPPVLDSDGSFFLYSKLTVDKSRWQQGNVFSCSVMHEALHNHYTQKSLSLSPG",
    "MFI ratio to WT (ΔWT) (fold)": 5.2
  }
]
